The reported measurements were obtained from ChEMBL document CHEMBL4257562.

Biological target: Transcriptional activator protein LasR (Pseudomonas aeruginosa (strain ATCC 15692 / PAO1 / 1C / PRS 101 / LMG12228), UniProt P25084)
Sequence (P25084 whole entry): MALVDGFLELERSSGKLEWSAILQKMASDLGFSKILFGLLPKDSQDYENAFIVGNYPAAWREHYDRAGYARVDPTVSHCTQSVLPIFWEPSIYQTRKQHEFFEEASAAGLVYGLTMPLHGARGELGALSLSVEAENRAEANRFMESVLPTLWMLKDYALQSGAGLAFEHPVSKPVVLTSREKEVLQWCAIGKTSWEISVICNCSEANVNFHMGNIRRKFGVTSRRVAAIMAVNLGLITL
Experiment: Inhibition of LasR in Pseudomonas aeruginosa reporter strain harboring gfp-lasB
pIC50: −log10 of the molar value.
MEASURED PROPERTY: pIC50

* C=CCSS/C=C/C[S+]([O-])CC=C (stereo unspecified) | 4.82

====

molecular target: Transcriptional activator protein LasR (Pseudomonas aeruginosa (strain ATCC 15692 / PAO1 / 1C / PRS 101 / LMG12228)); assay: Antagonist activity at Pseudomonas aeruginosa MW1 LasR assessed as inhibition of protein interaction with OdDHL by beta-galactosidase reporter gene assay
MEASURED PROPERTY: IC50 (µM)

* CCCCCCCCNC(=O)CC(=O)c1ccccc1 | 10

====

test: Antagonist activity at Pseudomonas aeruginosa PqsR
MEASURED PROPERTY: IC50

- CS(=O)(=O)c1ncc(-n2cc(C(O)C3CCCC3)nn2)cn1 (stereo unspecified): 26 µM

====

target: Transcriptional activator protein LasR (Pseudomonas aeruginosa (strain ATCC 15692 / PAO1 / 1C / PRS 101 / LMG12228)); test: Antagonist activity at GFP-fused LasR in Pseudomonas aeruginosa PAO-JP2 co-expressing LVAgfp plasmid by fluorescence assay
MEASURED PROPERTY: IC50 (µM)

• O=C(Cc1ccc(Br)cc1)N[C@H]1CCOC1=O = 14.8
• O=C(CCCc1c[nH]c2ccccc12)N[C@H]1CCOC1=O = 16.1

====

biological target: 2-heptyl-4(1H)-quinolone synthase PqsD (Pseudomonas aeruginosa); assay: Inhibition of recombinant Pseudomonas aeruginosa PqsD expressed in Escherichia coli using anthraniloyl-CoA as substrate assessed as decrease in HHQ production
Sequence (A0A0C7ACN7 whole entry): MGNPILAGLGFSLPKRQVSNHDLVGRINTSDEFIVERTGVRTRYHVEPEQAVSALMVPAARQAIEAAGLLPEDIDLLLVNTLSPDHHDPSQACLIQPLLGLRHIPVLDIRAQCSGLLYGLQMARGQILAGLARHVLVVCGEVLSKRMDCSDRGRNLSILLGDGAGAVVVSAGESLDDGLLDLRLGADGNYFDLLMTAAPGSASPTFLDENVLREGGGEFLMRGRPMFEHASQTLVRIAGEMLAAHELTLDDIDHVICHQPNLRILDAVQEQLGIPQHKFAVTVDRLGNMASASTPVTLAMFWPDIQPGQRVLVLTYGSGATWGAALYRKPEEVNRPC
pIC50: −log10 of the molar value.
MEASURED PROPERTY: pIC50

- O=[N+]([O-])c1ccccc1C(O)c1ccccc1 (stereo unspecified): 5.49
